Catalogue of IC50 values
- assayed.system: PI3K beta (Homo sapiens)
- Sequence (P42338 whole entry): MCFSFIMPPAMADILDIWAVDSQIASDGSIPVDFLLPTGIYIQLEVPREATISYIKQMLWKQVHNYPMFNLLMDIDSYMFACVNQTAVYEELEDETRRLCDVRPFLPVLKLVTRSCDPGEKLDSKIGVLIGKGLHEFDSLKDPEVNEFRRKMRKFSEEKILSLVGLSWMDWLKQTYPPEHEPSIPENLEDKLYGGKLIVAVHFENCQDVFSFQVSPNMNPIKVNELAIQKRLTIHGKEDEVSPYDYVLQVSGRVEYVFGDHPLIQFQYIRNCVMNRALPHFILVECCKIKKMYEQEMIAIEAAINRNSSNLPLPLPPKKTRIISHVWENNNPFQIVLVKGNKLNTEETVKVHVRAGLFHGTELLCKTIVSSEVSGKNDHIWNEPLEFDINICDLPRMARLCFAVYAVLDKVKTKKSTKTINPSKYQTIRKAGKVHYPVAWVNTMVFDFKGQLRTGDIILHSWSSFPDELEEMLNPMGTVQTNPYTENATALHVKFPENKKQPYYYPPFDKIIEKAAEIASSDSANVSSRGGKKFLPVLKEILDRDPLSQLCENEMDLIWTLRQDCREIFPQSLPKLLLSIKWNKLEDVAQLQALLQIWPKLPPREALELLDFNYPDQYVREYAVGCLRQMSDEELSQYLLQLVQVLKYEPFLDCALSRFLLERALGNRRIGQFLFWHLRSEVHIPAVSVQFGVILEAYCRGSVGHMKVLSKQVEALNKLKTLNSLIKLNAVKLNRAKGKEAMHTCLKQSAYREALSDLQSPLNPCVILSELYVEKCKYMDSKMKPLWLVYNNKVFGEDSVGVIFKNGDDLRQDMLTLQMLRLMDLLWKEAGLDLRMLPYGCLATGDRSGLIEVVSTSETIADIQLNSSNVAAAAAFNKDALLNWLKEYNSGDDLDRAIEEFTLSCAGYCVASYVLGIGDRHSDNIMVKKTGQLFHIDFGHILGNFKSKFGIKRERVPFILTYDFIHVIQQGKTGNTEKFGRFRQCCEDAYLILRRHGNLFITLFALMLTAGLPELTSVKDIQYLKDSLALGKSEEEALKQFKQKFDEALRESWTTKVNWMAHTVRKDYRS
- Sequence (P27986 whole entry partner): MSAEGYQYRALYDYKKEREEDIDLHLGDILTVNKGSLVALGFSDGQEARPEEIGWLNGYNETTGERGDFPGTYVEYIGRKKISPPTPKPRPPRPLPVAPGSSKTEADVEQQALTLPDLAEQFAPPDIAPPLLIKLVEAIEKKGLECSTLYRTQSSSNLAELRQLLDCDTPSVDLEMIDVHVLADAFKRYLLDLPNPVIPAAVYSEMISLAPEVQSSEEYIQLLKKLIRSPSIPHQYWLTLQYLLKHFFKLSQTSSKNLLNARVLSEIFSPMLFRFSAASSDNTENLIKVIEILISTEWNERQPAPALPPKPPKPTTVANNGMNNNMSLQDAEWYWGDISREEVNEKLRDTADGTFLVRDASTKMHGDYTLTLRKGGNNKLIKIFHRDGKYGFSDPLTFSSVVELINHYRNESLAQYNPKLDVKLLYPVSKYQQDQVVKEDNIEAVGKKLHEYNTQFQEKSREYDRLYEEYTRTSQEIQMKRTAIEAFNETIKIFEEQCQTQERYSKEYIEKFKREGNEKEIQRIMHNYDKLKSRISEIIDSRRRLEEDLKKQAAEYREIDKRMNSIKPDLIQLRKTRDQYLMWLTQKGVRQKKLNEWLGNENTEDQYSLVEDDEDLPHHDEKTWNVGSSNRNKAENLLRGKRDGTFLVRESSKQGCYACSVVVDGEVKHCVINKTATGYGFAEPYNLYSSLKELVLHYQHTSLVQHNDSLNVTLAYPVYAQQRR

The cases that follow already have their IC50 on record.
{"compound": "CN(C)C(=O)c1cc2cnc(Nc3ccc(-c4csc5c(=O)cc(N6CCOCC6)oc45)cn3)nc2n1C1CCCC1 [Compound 8]", "assayed.system": "PI3K beta (Homo sapiens)", "IC50": "< 0.5 µM"}
{"compound": "CN(C)C(=O)c1cc2cnc(N(c3cncc(-c4csc5c(=O)cc(N6CCOCC6)oc45)c3)c3ncc4cc(C(=O)N(C)C)n(C5CCCC5)c4n3)nc2n1C1CCCC1 [Compound 21]", "assayed.system": "PI3K beta (Homo sapiens)", "IC50": "1 to 10 µM"}

Next compound, please.
IC50 value, target or system PI3K beta (Homo sapiens), for CN(C)C(=O)c1cc2cnc(Nc3ccc(-c4csc5c(=O)cc(N6CCOCC6)oc45)nc3)nc2n1C1CCCC1 [Compound 7] : 10 to 45 µM

====

- assayed.system: Syk (Homo sapiens)
pIC50: −log10 of the molar value.
property: pIC50

# count of solved cases: 2
{"chemical.string": "Cc1nn(-c2ccnc(Nc3ccc(-c4csc5c(=O)cc(N6CCNCC6)oc45)cc3)n2)cc1CN1CC(O)C1", "pIC50": "> 6.30"}
{"chemical.string": "Cc1nn(-c2ccnc(Nc3ccc(-c4csc5c(=O)cc(N6CCOCC6)oc45)cc3)n2)cc1CN1CCOCC1", "pIC50": "< 4.35"}

Please look at the following compound next.
Tested system Syk (Homo sapiens); pIC50 recorded for `Cc1nn(-c2ccnc(Nc3ccc(-c4csc5c(=O)cc(N6CCOCC6)oc45)cc3)n2)cc1CN(C)C` was > 6.30

====

- assayed.system: BRD4-2 (Homo sapiens, UniProt O60885)
property: IC50

Solved cases below.
{"molecule": "Cc1nn(-c2ccnc(Nc3ccc(-c4csc5c(=O)cc(N6CCOCC6)oc45)cc3)n2)cc1CN(C)C [Compound 57]", "assayed.system": "BRD4-2 (Homo sapiens, UniProt O60885)", "IC50": "1 to 10 µM"}
{"molecule": "C/C=C/C(=O)N1CCOc2ccc(-c3csc4c(=O)cc(N5CCOCC5)oc34)cc21 [Compound 39]", "assayed.system": "BRD4-2 (Homo sapiens, UniProt O60885)", "IC50": "< 0.5 µM"}
{"molecule": "COC(=O)c1cc(-c2csc3c(=O)cc(N4CCOCC4)oc23)ccc1Nc1ncc2cc(C(=O)N(C)C)n(C3CCCC3)c2n1 [Compound 11]", "assayed.system": "BRD4-2 (Homo sapiens, UniProt O60885)", "IC50": "1 to 10 µM"}
{"molecule": "O=c1cc(N2CCOCC2)oc2c(-c3ccc4c(c3)OCCO4)csc12 [Compound 0]", "assayed.system": "BRD4-2 (Homo sapiens, UniProt O60885)", "IC50": "0.5 to 1 µM"}
{"molecule": "CC(C)n1c(C(=O)N(C)C)cc2cnc(Nc3ccc(-c4csc5c(=O)cc(N6CCOCC6)oc45)cc3)nc21 [Compound 25]", "assayed.system": "BRD4-2 (Homo sapiens, UniProt O60885)", "IC50": "< 0.5 µM"}

Entry C=CC(=O)N1CCOc2ccc(-c3csc4c(=O)cc(N5CCN(C)CC5)oc34)cc21 [Compound 28] , tested on BRD4-2 (Homo sapiens, UniProt O60885), has a reported IC50 of 10 to 45 µM

N#C/C(=C\C1CC1)C(=O)Nc1cccc(-c2csc3c(=O)cc(N4CCOCC4)oc23)c1 [Compound 35] on BRD4-2 (Homo sapiens, UniProt O60885) gives IC50 = 0.5 to 1 µM

The reported numbers originate from patent US20230165873A1.
